Measured values drawn from patent US7183411B2 for this set.

target: human VR1 (Homo sapiens, UniProt Q8NER1); construct: expressed in transfected cells; host or cells: HEK293; test: Broadly stimulated recombinant human VR1 functional assay (Ca2+ influx, FLIPR); assay type: cell-based; conditions: recombinant human VR1, Ca2+ influx, stimulus 300 nM PMA; read-out: IC50, PKC phosphorylation
Sequence (Q8NER1 whole entry): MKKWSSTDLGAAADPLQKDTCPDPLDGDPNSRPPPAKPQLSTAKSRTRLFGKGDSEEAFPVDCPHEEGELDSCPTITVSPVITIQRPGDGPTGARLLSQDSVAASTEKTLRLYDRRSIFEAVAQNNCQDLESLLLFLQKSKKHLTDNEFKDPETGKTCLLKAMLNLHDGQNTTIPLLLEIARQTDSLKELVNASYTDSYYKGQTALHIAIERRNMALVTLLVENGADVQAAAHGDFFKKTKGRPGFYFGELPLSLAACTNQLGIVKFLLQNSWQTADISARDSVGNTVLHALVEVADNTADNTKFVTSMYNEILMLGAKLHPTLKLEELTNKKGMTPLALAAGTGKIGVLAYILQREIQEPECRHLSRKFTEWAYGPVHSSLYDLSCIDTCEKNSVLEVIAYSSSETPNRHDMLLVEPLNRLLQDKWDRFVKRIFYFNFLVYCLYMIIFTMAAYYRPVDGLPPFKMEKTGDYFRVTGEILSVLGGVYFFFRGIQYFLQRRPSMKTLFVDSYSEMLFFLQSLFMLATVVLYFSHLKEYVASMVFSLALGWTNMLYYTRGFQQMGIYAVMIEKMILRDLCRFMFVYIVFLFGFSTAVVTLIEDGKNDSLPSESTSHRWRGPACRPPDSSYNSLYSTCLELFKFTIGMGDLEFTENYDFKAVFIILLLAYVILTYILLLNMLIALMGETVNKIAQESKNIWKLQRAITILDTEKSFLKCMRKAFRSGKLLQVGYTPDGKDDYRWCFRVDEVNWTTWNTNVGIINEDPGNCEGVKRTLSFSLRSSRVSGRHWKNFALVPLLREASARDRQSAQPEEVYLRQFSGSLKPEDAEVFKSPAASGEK
measurementLabel: IC50 (µM)
Answer format: numeric, µM implied, no suffix.

> print(dat)
                                   molecule  measurementlabel  numericreadout
1  Oc1cc2c(cc1O)CN(C(=S)NCCc1ccc(Cl)cc1)CCC2 [Capsazepine, capsazepine]              IC50            0.16

We now examine a further molecule.
Asked: Query (molecule): Cl.Cl.Cl.Cl.Cl.Cl.N.N.N.N.N.N.N.N.N.N.N.N.N.N.[O-2].[O-2].[Ru+3].[Ru+3].[Ru+4] ; field requested: IC50
Given back: 0.5

---

molecular target: recombinant rat VR1 (rVR1/HEK293) (Rattus norvegicus); assay: Broadly stimulated recombinant rat VR1 functional assay (Ca2+ influx, FLIPR); conditions: IC50, PKC phosphorylation, recombinant rat VR1, Ca2+ influx, stimulus 300 nM PMA
measurementLabel: IC50 (µM)
Answer format: numeric, µM implied, no suffix.

Asked: Query (compound): Oc1cc2c(cc1O)CN(C(=S)NCCc1ccc(Cl)cc1)CCC2 [Capsazepine, capsazepine] ; field requested: IC50
Given back: 10

---

target: human VR1 (Homo sapiens, UniProt Q8NER1); construct: expressed in transfected cells; host or cells: HEK293; experiment: Human VR1 functional assay (FLIPR intracellular Ca2+, capsaicin challenge); format: cell-based; details: read-out: In vitro functional assays hIC50 or EC50
Response field label: string, one of true (IC50 or EC50 strictly below 0.006 µM) or false.

Field: example entries. Status: answers known.
> print(dat)
                                querysmiles  qualitativelabel
1  Cc1cc2c(NC(=O)NCc3ccc(Cl)c(Cl)c3)cccc2cn1             false
2  O=C(NCCc1cccc(C(F)(F)F)c1)Nc1cccc2cnccc12             false

Asked: Does CC(C)(C)c1ccc(CCNC(=O)Nc2cccc3cnccc23)cc1 have IC50 or EC50 strictly under 0.006 µM?
Given back: true

Asked: Does COc1ccc(CCNC(=O)Nc2cccc3cnccc23)cc1 have IC50 or EC50 strictly under 0.006 µM?
Given back: false

Asked: Does CC(C)(C)c1ccc(CNC(=O)Nc2cccc3ccc(O)cc23)cc1 have IC50 or EC50 strictly under 0.006 µM?
Given back: false

Asked: Does CC(C)(C)c1ccc(CNC(=O)Nc2cccc3cnccc23)cc1 have IC50 or EC50 strictly under 0.006 µM?
Given back: true

Asked: Does O=C(NCc1ccc(Cl)cc1)Nc1cccc2cnccc12 have IC50 or EC50 strictly under 0.006 µM?
Given back: true

---

target: recombinant rat VR1 (rVR1/HEK293) (Rattus norvegicus); test: Broadly stimulated recombinant rat VR1 functional assay (Ca2+ influx, FLIPR); settings: IC50, PKC phosphorylation at low pH, recombinant rat VR1, Ca2+ influx, PMA at low pH
measurementLabel: IC50 (µM)
Answer format: numeric, µM implied, no suffix.

Asked: Query (molecule): Oc1cc2c(cc1O)CN(C(=S)NCCc1ccc(Cl)cc1)CCC2 [Capsazepine, capsazepine] ; field requested: IC50
Given back: 10

---

target: human VR1 (Homo sapiens, UniProt Q8NER1); construct: expressed in transfected cells; host or cells: HEK293; test: Broadly stimulated recombinant human VR1 functional assay (Ca2+ influx, FLIPR); type: cell-based; conditions: human recombinant receptor, FIG. 1; read-out: potency to inhibit Ca2+ activity induced by the panel of stimuli
pIC50: −log10 of the molar value.
measurementLabel: pIC50

Asked: Query (molecule): Oc1cc2c(cc1O)CN(C(=S)NCCc1ccc(Cl)cc1)CCC2 [Capsazepine, capsazepine] ; field requested: pIC50
Given back: 6.52 to 7.00

---

molecular target: human VR1 (Homo sapiens, UniProt Q8NER1); construct: expressed in transfected cells; host or cells: HEK293; test: Human VR1 functional assay (FLIPR intracellular Ca2+, capsaicin challenge); assay type: cell-based; details: read-out: In vitro functional assays hIC50 or EC50
Reported IC50 or EC50 is given for each of the following compounds.
Answer format: numeric, nM implied, no suffix.

Asked: Query (compound): O=C(NCCc1ccc(Cl)c(Cl)c1)Nc1cccc2cnccc12 [Compound 1] ; field requested: IC50 or EC50
Given back: 8

Asked: Query (compound): O=C(NCc1ccccc1)Nc1cccc2ccc(O)cc12 [Compound 18] ; field requested: IC50 or EC50
Given back: 45

---

target: recombinant rat VR1 (rVR1/HEK293) (Rattus norvegicus, UniProt O35433); assay: Broadly stimulated recombinant rat VR1 functional assay (Ca2+ influx, FLIPR); details: IC50, Anandamide, recombinant rat VR1, Ca2+ influx, stimulus anandamide 10 μM
Sequence (O35433 whole entry): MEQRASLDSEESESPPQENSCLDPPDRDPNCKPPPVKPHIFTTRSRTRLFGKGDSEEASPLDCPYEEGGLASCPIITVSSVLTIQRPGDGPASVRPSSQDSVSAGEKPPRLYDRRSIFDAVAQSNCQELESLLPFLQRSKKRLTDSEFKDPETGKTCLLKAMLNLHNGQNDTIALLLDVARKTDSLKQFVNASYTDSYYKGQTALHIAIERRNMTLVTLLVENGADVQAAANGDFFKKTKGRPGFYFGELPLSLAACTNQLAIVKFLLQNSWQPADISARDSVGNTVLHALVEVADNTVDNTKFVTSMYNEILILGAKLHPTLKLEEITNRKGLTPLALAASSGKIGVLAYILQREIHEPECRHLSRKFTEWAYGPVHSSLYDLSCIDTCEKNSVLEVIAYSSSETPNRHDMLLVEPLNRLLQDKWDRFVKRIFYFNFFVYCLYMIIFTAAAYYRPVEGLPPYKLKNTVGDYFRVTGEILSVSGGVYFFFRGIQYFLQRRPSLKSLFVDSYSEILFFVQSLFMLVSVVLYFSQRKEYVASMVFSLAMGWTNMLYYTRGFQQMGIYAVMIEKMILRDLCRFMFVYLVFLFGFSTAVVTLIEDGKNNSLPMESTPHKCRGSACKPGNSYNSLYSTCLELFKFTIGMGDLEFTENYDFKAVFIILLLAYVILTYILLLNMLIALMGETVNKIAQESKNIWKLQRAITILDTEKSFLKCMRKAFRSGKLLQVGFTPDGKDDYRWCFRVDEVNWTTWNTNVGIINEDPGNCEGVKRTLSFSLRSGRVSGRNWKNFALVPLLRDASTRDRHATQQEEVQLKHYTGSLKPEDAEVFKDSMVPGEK
measurementLabel: pIC50
Entry type: numeric. Quantity: pIC50, the -log10 of concentration in molar units.

Asked: Write down the reported pIC50 of Oc1cc2c(cc1O)CN(C(=S)NCCc1ccc(Cl)cc1)CCC2 [Capsazepine, capsazepine] , test system: recombinant rat VR1 (rVR1/HEK293) (Rattus norvegicus, UniProt O35433).
Given back: 5.89

---

molecular target: human VR1 (Homo sapiens); construct: expressed in transfected cells; host or cells: HEK293; assay: Human VR1 functional assay (FLIPR intracellular Ca2+, capsaicin challenge); assay type: cell-based; details: read-out: In vitro functional assays hIC50 or EC50
Response field label: string, one of 1 (IC50 or EC50 strictly below 0.01 µM) or 0.

Asked: Does Cc1cc2c(NC(=O)NCc3cccc(C(F)(F)F)c3)cccc2cn1 [Compound 9] have IC50 or EC50 strictly under 0.01 µM?
Given back: 1

Asked: Does COc1ccc(CNC(=O)Nc2cccc3cnccc23)cc1 [Compound 37] have IC50 or EC50 strictly under 0.01 µM?
Given back: 0

---

biological target: recombinant rat VR1 (rVR1/HEK293) (Rattus norvegicus); test: Broadly stimulated recombinant rat VR1 functional assay (Ca2+ influx, FLIPR)
measurementLabel: EC50 (µM)
Answer format: numeric, µM implied, no suffix.

Asked: Query (compound): CCCCC/C=C\C/C=C\C/C=C\C/C=C\CCCC(=O)NCCO [anandamide, Anandamide] ; field requested: EC50
Given back: 5

---

molecular target: human VR1 (Homo sapiens, UniProt Q8NER1); construct: expressed in transfected cells; host or cells: HEK293; assay: Broadly stimulated recombinant human VR1 functional assay (Ca2+ influx, FLIPR); type: cell-based; conditions: recombinant human VR1, Ca2+ influx, PMA at low pH; read-out: IC50, PKC phosphorylation at low pH
measurementLabel: IC50

Asked: Write down the reported IC50 of Oc1cc2c(cc1O)CN(C(=S)NCCc1ccc(Cl)cc1)CCC2 [Capsazepine, capsazepine] , test system: human VR1 (Homo sapiens, UniProt Q8NER1).
Given back: 370 nM

---

molecular target: VR1 (rat spinal cord) (Rattus norvegicus, UniProt O35433)
Sequence (O35433 whole entry): as above
measurementLabel: Ki (nM)
Answer format: numeric, nM implied, no suffix.

Asked: Write down the reported Ki of O=C(NCc1ccc(-c2cccs2)s1)Nc1cccc2ccc(O)cc12 , test system: VR1 (rat spinal cord) (Rattus norvegicus, UniProt O35433).
Given back: 382

---

# human VR1 vanilloid receptors (Homo sapiens): Ki values follow
Answer format: numeric, nM implied, no suffix.

Worked examples follow.
> print(dat)
                                   compound                        experimentaltarget  numericreadout
1  O=C(NCc1ccc(C(F)(F)F)nc1)Nc1cccc2ccc(O)cc12 [Compound 29]  human VR1 vanilloid receptors (Homo sapiens)            36.1
2  O=C(NCCc1ccc(Cl)c(Cl)c1)Nc1cccc2ccc(O)cc12 [Compound 27]  human VR1 vanilloid receptors (Homo sapiens)            1.22
3  CN(Cc1ccccc1)C(=O)Nc1cccc2ccc(O)cc12 [Compound 26]  human VR1 vanilloid receptors (Homo sapiens)           18600
4  O=C(NCc1ccc(Cl)c(C(F)(F)F)c1)Nc1cccc2ccc(O)cc12 [Compound 57]  human VR1 vanilloid receptors (Homo sapiens)            1.14
5  O=C(NCCc1ccccc1)Nc1cccc2ccc(O)cc12 [Compound 23]  human VR1 vanilloid receptors (Homo sapiens)            53.5

Asked: Write down the reported Ki of Cc1cc2c(NC(=O)NCc3ccc(Cl)c(Cl)c3)cccc2cn1 [Compound 8] , test system: human VR1 vanilloid receptors (Homo sapiens).
Given back: 12.9

Asked: Write down the reported Ki of CC(C)(C)c1ccc(CCNC(=O)Nc2cccc3cnccc23)cc1 [Compound 35] , test system: human VR1 vanilloid receptors (Homo sapiens).
Given back: 1.3

Asked: Write down the reported Ki of O=C(NCc1cccc(C(F)(F)F)c1)Nc1cccc2cnccc12 [Compound 7] , test system: human VR1 vanilloid receptors (Homo sapiens).
Given back: 22.7

Asked: Write down the reported Ki of O=C(NCCc1ccc(Cl)cc1)Nc1cccc2cnccc12 [Compound 3] , test system: human VR1 vanilloid receptors (Homo sapiens).
Given back: 88.7

Asked: Write down the reported Ki of O=C(NCc1nc2ccccc2[nH]1)Nc1cccc2ccc(O)cc12 [Compound 32] , test system: human VR1 vanilloid receptors (Homo sapiens).
Given back: 2540
